Experiment: Cmax in Crl:CD(SD)(IGS) rat at 1 mg/kg, po administered via cassette dosing by LC/MS/MS analysis
Type: ADME, organism-based
Set-up: dose 1 mg/kg, route oral
Conditions: in vivo
Measured Cmax by item
Respond with the figure and its unit, in that order.

structure string	Cmax
Cl.O=c1c(-c2nnn[nH]2)cccn1C[C@@H]1CNCCO[C@H]1c1ccc(Cl)c(F)c1	16.2 ng/mL
Cl.O=C(O)c1cccn(C[C@@H]2CNCCO[C@H]2c2ccc(Cl)c(F)c2)c1=O	93.8 ng/mL
Cl.O=c1ccccn1C[C@@H]1CNCCO[C@H]1c1ccc(Cl)c(F)c1	47.9 ng/mL

Okay, next one:
// recorded Cmax for Cl.O=c1[nH]c(-c2cccn(C[C@@H]3CNCCO[C@H]3c3ccc(Cl)c(F)c3)c2=O)no1 : 17.2 ng/mL
